Test system: Setaria faberi (SETFA)
assay_name: Post-emergence efficacy, glasshouse
Format: in vivo
stated_conditions: Setaria faberi, post-emergence, 312 h; Application Rate 1000 g/Ha; evaluated after 13 days; 100=total damage to plant, 0=no damage to plant; read-out: Control of weed species after post-emergence application, SETFA
Reported pest or weed control at 1000 g/ha by item:

molecule	pest or weed control at 1000 g/ha, %
O=C(O)C[n+]1cc(C(=O)[O-])c2ccccc2n1	30
Cc1c(C(=O)[O-])c2ccccc2n[n+]1C [Compound A61, 2,3-dimethylcinnolin-2-ium-4-carboxylate]	40
C[n+]1cc(C(=O)Nc2nncs2)c2ccccc2n1	10
CCP(=O)([O-])c1c[n+](C)nc2ccccc12	100
CCCC[n+]1cc(C(=O)[N-]S(C)(=O)=O)c2ccccc2n1	40
CONC(=O)c1c[n+](C)nc2ccccc12 [Compound A4, 2,2,2-trifluoroacetate]	10
O=P([O-])(O)c1c[n+](CCO)nc2ccccc12	50
COCC[n+]1cc(C(=O)[N-]S(C)(=O)=O)c2ccccc2n1	50

====

System: Digitaria sanguinalis (DIGSA)
assay_name: Post-emergence efficacy, glasshouse
Format: in vivo
stated_conditions: Digitaria sanguinalis, post-emergence, 312 h; Application Rate 1000 g/Ha; evaluated after 13 days; 100=total damage to plant, 0=no damage to plant; read-out: Control of weed species after post-emergence application, DIGSA
Reported pest or weed control at 1000 g/ha by item:
reported_property: pest or weed control at 1000 g/ha (%)

molecule	units_symbol	result
C[n+]1cc(C(=O)[N-]S(=O)(=O)CCC(F)(F)F)c2ccccc2n1	%	70
CCCS(=O)(=O)[N-]C(=O)c1c[n+](C)nc2ccccc12	%	80
C[C@@H](NC(=O)c1c[n+](C)nc2ccccc12)C(=O)O [Compound A9, 2,2,2-trifluoroacetate]	%	40
O=C(O)C[n+]1cc(C(=O)[O-])c2ccccc2n1	%	70
CC(C)CP(=O)([O-])c1c[n+](C)nc2ccccc12	%	90
C[n+]1cc(C(=O)[N-]S(=O)(=O)C2CC2)c2ccccc2n1	%	20
CC[n+]1cc(P(=O)([O-])OC)c2ccccc2n1	%	90
COC(=O)CC[n+]1cc(C(=O)[N-]S(C)(=O)=O)c2ccccc2n1	%	30
COC(=O)c1c[n+](C)nc2ccccc12	%	60
C[n+]1cc(OCC(=O)O)c2ccccc2n1	%	70
COC(=O)C[n+]1cc(C(=O)[N-]S(C)(=O)=O)c2ccccc2n1	%	0
COP(=O)(O)Cc1c[n+](C)nc2ccccc12	%	90
O=P(O)(O)CCCc1c[n+](CCCP(=O)(O)O)nc2ccccc12	%	10
O=C(O)CC[n+]1cc(C(=O)[N-]S(=O)(=O)C2CC2)c2ccccc2n1	%	0
CCP(=O)([O-])c1c[n+](C)nc2ccccc12	%	70
C[n+]1cc(CCC(=O)O)c2ccccc2n1	%	100

====

Test system: Lolium perenne (LOLPE)
assay_name: Post-emergence efficacy, glasshouse
Assay type: in vivo
stated_conditions: Lolium perenne, post-emergence, 312 h; Application Rate 1000 g/Ha; evaluated after 13 days; 100=total damage to plant, 0=no damage to plant; read-out: Control of weed species after post-emergence application, LOLPE

molecule	pest or weed control at 1000 g/ha (%)
CCCCCCCC[n+]1cc(C(=O)[N-]S(C)(=O)=O)c2ccccc2n1 [Compound A40]	20
CONC(=O)c1c[n+](C)nc2ccccc12 [Compound A4, 2,2,2-trifluoroacetate]	0
C[n+]1cc(OCC(=O)O)c2ccccc2n1 [Compound A58]	0
CC(C)S(=O)(=O)[N-]C(=O)c1c[n+](C)nc2ccccc12 [Compound A34]	0
C[n+]1nc2ccccc2c(C(=O)[O-])c1-c1ccccc1 [Compound A60]	40
COP(=O)([O-])c1c[n+](CC(=O)NS(C)(=O)=O)nc2ccccc12 [Compound A63]	10
COC(=O)c1c[n+](C)nc2ccccc12 [Compound A2]	30
C[n+]1cc(C(=O)[N-]S(=O)(=O)C(F)(F)F)c2ccccc2n1 [Compound A44]	0
O=C(O)C[n+]1cc(C(=O)[O-])c2ccccc2n1 [Compound A23]	10
C[n+]1cc(C(=O)O)c2ccccc2n1 [Compound A29]	40
COC(=O)CC[n+]1cc(C(=O)[N-]S(C)(=O)=O)c2ccccc2n1 [Compound A18]	0
CCCS(=O)(=O)[N-]C(=O)c1c[n+](C)nc2ccccc12 [Compound A33]	40

====

Test system: Ipomoea hederacea (IPOHE)
assay_name: Post-emergence efficacy, glasshouse
Assay type: in vivo
stated_conditions: Ipomoea hederacea, post-emergence, 312 h; Application Rate 1000 g/Ha; evaluated after 13 days; 100=total damage to plant, 0=no damage to plant; read-out: Control of weed species after post-emergence application, IPOHE
Reported pest or weed control at 1000 g/ha by item:
reported_property: pest or weed control at 1000 g/ha (%)

compound	reported_property	units_symbol	result
O=P(O)(O)CCCc1c[n+](CCCP(=O)(O)O)nc2ccccc12 [Compound A82]	pest or weed control at 1000 g/ha	%	10
C[n+]1cc(C(=O)[N-]S(=O)(=O)C(C)(C)C)c2ccccc2n1 [Compound A36]	pest or weed control at 1000 g/ha	%	30
COC(=O)c1c[n+](C)nc2ccccc12 [Compound A2]	pest or weed control at 1000 g/ha	%	70
CS(=O)(=O)[N-]C(=O)c1c[n+](CC(=O)NS(C)(=O)=O)nc2ccccc12 [Compound A13]	pest or weed control at 1000 g/ha	%	10
CCCCCCCC[n+]1cc(C(=O)[N-]S(C)(=O)=O)c2ccccc2n1 [Compound A40]	pest or weed control at 1000 g/ha	%	10
COC(=O)CC[n+]1cc(C(=O)[N-]S(C)(=O)=O)c2ccccc2n1 [Compound A18]	pest or weed control at 1000 g/ha	%	20
CC(C)P(=O)([O-])c1c[n+](C)nc2ccccc12 [Compound A46]	pest or weed control at 1000 g/ha	%	100
C[n+]1cc(C(=O)O)c2ccccc2n1 [Compound A3]	pest or weed control at 1000 g/ha	%	20
